Values compiled from paper PMC10663500.

# reported Kd; entries follow
assay.system: T1, human programmed cell death protein 1 (hPD-1) C93S (aa 24-167) (Homo sapiens, UniProt Q15116, C93S)
T1 construct: made as a fusion with a TEV site and human Fc; the Fc was cut off with TEV protease; source: Expi293F, purified (Protein A, TEV cleavage of Fc, SEC; monomer fractions); not shown: Fc (human), C-terminal, cleaved
T1 sequence (Q15116 24-167 C93S): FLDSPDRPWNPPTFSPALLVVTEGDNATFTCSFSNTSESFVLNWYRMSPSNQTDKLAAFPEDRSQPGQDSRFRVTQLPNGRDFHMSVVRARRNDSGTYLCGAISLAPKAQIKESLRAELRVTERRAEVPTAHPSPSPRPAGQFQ
assay.details: SPR; Carterra LSA; Fab from the ammonium sulfate precipitate of the culture supernatant immobilised on a NiHC200M chip; hPD-1 (1-1024 nM) or mPD-1-Fc (4-1024 nM) as analyte, fourfold dilution series, no regeneration; HBS-EP pH 7.4, 25 °C; medians over the spots of a construct, KD = koff/kon
run.parameters: one partner purified

Sample records with Kd:
binder	Kd
toripalimab Fab L.V99M (Fab, V domains shown, as the heavy chain of Sm3; light chain of Sm3 with this change; numbers count from the chain's first residue; source: Brevibacillus, culture supernatant (ammonium sulfate precipitate); not shown: 6xHis, C-terminal, kept; 6xHN, C-terminal, kept) VH: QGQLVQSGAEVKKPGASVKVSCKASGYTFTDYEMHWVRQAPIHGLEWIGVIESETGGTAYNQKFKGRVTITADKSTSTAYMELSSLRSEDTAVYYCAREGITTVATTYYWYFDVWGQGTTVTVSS VL: DVVMTQSPLSLPVTLGQPASISCRSSQSIVHSNGNTYLEWYLQKPGQSPQLLIYKVSNRFSGVPDRFSGSGSGTDFTLKISRVEAEDVGVYYCFQGSHMPLTFGQGTKLEIK	1.43 nM
toripalimab Fab H.Q62Y (Fab, V domains shown, heavy chain of Sm3 with this change; numbers count from the chain's first residue; as the light chain of Sm3; source: Brevibacillus, culture supernatant (ammonium sulfate precipitate); not shown: 6xHis, C-terminal, kept; 6xHN, C-terminal, kept) VH: QGQLVQSGAEVKKPGASVKVSCKASGYTFTDYEMHWVRQAPIHGLEWIGVIESETGGTAYNYKFKGRVTITADKSTSTAYMELSSLRSEDTAVYYCAREGITTVATTYYWYFDVWGQGTTVTVSS VL: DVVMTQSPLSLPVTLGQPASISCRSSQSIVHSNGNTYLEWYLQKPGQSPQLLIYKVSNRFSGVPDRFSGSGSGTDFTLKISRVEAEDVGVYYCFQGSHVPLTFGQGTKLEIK	< 1.29 nM
toripalimab Fab L.S26Y (Fab, V domains shown, as the heavy chain of Sm3; light chain of Sm3 with this change; numbers count from the chain's first residue; source: Brevibacillus, culture supernatant (ammonium sulfate precipitate); not shown: 6xHis, C-terminal, kept; 6xHN, C-terminal, kept) VH: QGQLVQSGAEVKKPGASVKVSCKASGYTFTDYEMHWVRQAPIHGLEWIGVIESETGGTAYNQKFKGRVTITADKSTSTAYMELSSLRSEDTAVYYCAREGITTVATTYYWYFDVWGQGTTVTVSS VL: DVVMTQSPLSLPVTLGQPASISCRSYQSIVHSNGNTYLEWYLQKPGQSPQLLIYKVSNRFSGVPDRFSGSGSGTDFTLKISRVEAEDVGVYYCFQGSHVPLTFGQGTKLEIK	< 0.573 nM
toripalimab Fab L.P100A (Fab, V domains shown, as the heavy chain of Sm3; light chain of Sm3 with this change; numbers count from the chain's first residue; source: Brevibacillus, culture supernatant (ammonium sulfate precipitate); not shown: 6xHis, C-terminal, kept; 6xHN, C-terminal, kept) VH: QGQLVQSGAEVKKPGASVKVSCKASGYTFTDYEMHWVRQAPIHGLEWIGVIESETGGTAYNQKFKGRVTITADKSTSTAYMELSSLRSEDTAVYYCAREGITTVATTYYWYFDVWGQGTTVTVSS VL: DVVMTQSPLSLPVTLGQPASISCRSSQSIVHSNGNTYLEWYLQKPGQSPQLLIYKVSNRFSGVPDRFSGSGSGTDFTLKISRVEAEDVGVYYCFQGSHVALTFGQGTKLEIK	< 0.513 nM

Let us examine a further case.
Qu. Find the recorded Kd belonging to toripalimab Fab H.N61Y (Fab, V domains shown, heavy chain of Sm3 with this change; numbers count from the chain's first residue; as the light chain of Sm3; source: Brevibacillus, culture supernatant (ammonium sulfate precipitate); not shown: 6xHis, C-terminal, kept; 6xHN, C-terminal, kept) VH: QGQLVQSGAEVKKPGASVKVSCKASGYTFTDYEMHWVRQAPIHGLEWIGVIESETGGTAYYQKFKGRVTITADKSTSTAYMELSSLRSEDTAVYYCAREGITTVATTYYWYFDVWGQGTTVTVSS VL: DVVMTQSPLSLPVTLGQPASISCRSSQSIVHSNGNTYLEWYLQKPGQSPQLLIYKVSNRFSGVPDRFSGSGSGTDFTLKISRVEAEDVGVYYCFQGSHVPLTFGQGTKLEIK and report it.
Ans. < 0.156 nM
